# target.or.test.system: T1, recombinant soluble human IL-6 receptor (SR344) (human, UniProt P08887 20-344)
# T1 construct: In the 'membrane-type IL-6 receptor' Biacore assays the same SR344 was biotinylated and immobilized via streptavidin; also called soluble IL-6 receptor; membrane-type IL-6 receptor (as biotinylated SR344 immobilized on the sensor chip)
# T1 sequence (looked up): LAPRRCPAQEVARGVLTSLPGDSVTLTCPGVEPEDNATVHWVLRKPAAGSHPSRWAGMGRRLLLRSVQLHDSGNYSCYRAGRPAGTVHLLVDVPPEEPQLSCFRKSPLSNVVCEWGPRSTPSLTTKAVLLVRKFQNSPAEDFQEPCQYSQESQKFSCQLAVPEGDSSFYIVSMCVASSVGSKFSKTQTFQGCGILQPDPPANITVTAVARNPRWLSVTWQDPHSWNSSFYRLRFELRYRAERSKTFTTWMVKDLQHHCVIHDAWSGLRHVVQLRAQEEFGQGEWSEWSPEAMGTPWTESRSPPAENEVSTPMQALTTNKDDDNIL
# protocol: Biacore T100, antibody captured on protein A/G, SR344 as analyte, 37C; ratio of KD at pH 5.8 to pH 7.4

binder	KD(pH5.8)/KD(pH7.4)
CLH5/L73 (antibody, IgG1, V domains shown) VH: QVQLQESGPGLVKPSETLSLTCAVSGYSISHDHAWSWVRQPPGEGLEWIGHISYSGITNYNPHLKGRVTISRDTSKNQFSLKLSSVTAADTAAYYCARFLARITAHDHWGEGTLVTVSS VL: DIQMTQSPSSLSASVGDSVTITCQASQHISSHLNWYQQKPGKAPELLIYYGSHLHSGVPSRFSGSGSGTDFTFTISSLEAEDAATYYCGQGNRLPYTFGQGTKVEIE	66.1
humanized PM1 antibody (wild type, WT) (antibody, human IgG1, kappa, V domains shown, Tested as IgG1; also called WT-IgG1; H(WT)/L(WT)) VH: QVQLQESGPGLVRPSQTLSLTCTVSGYSITSDHAWSWVRQPPGRGLEWIGYISYSGITTYNPSLKSRVTMLRDTSKNQFSLRLSSVTAADTAVYYCARSLARTTAMDYWGQGSLVTVSS VL: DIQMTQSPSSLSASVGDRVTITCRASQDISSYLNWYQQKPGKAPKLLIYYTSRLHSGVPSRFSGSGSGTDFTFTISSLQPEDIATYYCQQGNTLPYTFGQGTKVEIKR	2.4
H170/L82 (antibody, IgG1, V domains shown, expressed and purified as IgG (IgG1); also called H170/L82-IgG1) VH: QVQLQESGPGLVKPSETLSLTCAVSGHSISHHHAHSWVRQPPGEGLEWIGYISYSGITHYNPHLKGRVTISRDTSKNQFSLKLSSVTAADTAAYYCARVLARITAMDHWGEGTLVTVSS VL: DIQMTQSPSSLSASVGDSVTITCQASQDISSHLNWYQQKPGKAPELLIYYGSHLHSGVPSRFSGSGSGTDFTFTISSLEAEDAATYYCGQGNRLPYTFGQGTKVEIE	394
H3pI/L73 (antibody, IgG1, V domains shown, antibody expressed as IgG1; also called H3pI/L73-IgG1; H3pl/L73) VH: QVQLQESGPGLVKPSETLSLTCAVSGHSISHDHAHSWVRQPPGEGLEWIGYISYSGITNYNPSLKGRVTISRDTSKNQFSLKLSSVTAADTAAYYCARSLARTTAMDYWGEGTLVTVSS VL: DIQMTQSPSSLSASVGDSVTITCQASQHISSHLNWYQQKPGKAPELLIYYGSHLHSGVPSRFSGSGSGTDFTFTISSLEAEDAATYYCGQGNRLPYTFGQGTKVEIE	41.3
